- Tested on: MS2 coat protein
- ASSAY_INFO: apparent KD of MS2 coat protein, switch ON state; designed switch direction (-1 OFF switch, 1 ON switch): -1; higher = weaker reporter binding
- CONDITION_DETAILS: FMN input: 0 or 200 uM; Eterna round: R93 (includes R88 designs)
Provide the recorded apparent KD of MS2 coat protein for the entries that follow.
Hey, just the number and the unit after it is fine.

Take a look at these entries with their results.
{"BIOSEQUENCE": "CUUAAGUGAGGAUAUCAGUAGUAAAAAAAUAAAAUUACUACUGAGAAGGCACAUGAGGAUCACCCAUGUUCCAA [EX4 341: Super Stable 41]", "MEASURED_RESULT": "29.7 nM"}
{"BIOSEQUENCE": "AAUAAGUCAGGAUAUGCGAAUAGAAGAUAAGAUACCCAAAAGCAGAAGGGACAUGAGGAUCACCCAUGUAAAUA [JR_Exc004_Sub010]", "MEASURED_RESULT": "31.1 nM"}
{"BIOSEQUENCE": "GAAAAGUUAGGAUAUACAGAUAAAAAAACGAAAAAAAAUCUGUAGAAGGAACAUGAGGAUCACCCAUGUAAAAA [Mat - Exclusion 4 - Mayanna - D104]", "MEASURED_RESULT": "30.7 nM"}
{"BIOSEQUENCE": "AAGAAGUGAGGAUAUCGAAGACAGACGAAAAGUCUGUCAAACGAGAAGGCACAUGAGGAUCACCCAUGUGGGAG [Mat - Exaclusion 4 - Eli mod - D74]", "MEASURED_RESULT": "114 nM"}

Each sequence below has a recorded value; state its apparent KD of MS2 coat protein.
1. GAUUAGGUAGGAUAUACAUGAGGAUCACCCAUGUAGGAAAAAAGCUACGAAAAAGAAUGUAGAAGGACCUAAAG [Mat - Exclusion 3 - Mayanna mod - D105]
2. AAGAAUGUAGGAUAUACAAGGAAGAAAGAAAAGAAAAGAAAACAUGAGGAUCACCCAUGUAGAAGGACAUAGAA [EteRNA is fun!]

OUTPUT:
20.5 nM
23.6 nM

Could you report apparent KD of MS2 coat protein for every entry in the following list?
1. AAUUAGUGAGGAUAUACGGGAGGGAGGGAGGGAGGGAGGGAGUAGAAGGCACAUGAGGAUCACCCAUGUAAUUA [The West [Loop] is Red]
2. AACAGUACAGGAUAUACAUGAGGAUCACCCAUGUGAAAAUAAAGUGGCGUACCACAAAGUAGAAGGGUACUGAA [Mat - Exclusion 3 - JL mod - D26]

OUTPUT:
20.8 nM
26.7 nM
